Values were extracted from ChEMBL document CHEMBL1201862.

System: MDA-N
Experiment: NCI tumour cell line growth inhibition, 48 h
The source made the active and inactive calls. Cut-off read from the data, not from the text of the source: active = GI50 up to about 1.1 µM and inactive = higher.
// one of 1 = active, -1 = inactive, no free text

Worked cases, answers included:
molecule	category
Cc1ccc2nc(-c3nccn3C)cc(C(=O)NC(C)CN(C)C)c2c1 (configuration not stated)	-1
N#CC(C#N)=Cn1c(=S)[nH]c2ccc([N+](=O)[O-])cc21	-1
CCOC(=O)C(C)(C(=O)OCC)/C(Cl)=C\Cl	-1
Oc1cccc(-c2cn3cc(C(F)(F)F)ccc3n2)c1	-1
COc1ccc2oc(OC)c(CC=C(C)C)c(=O)c2c1C	-1

## Input How did this test come out for O=C(O)CCC(=O)c1ccc2ccc3cccc4ccc1c2c34 ?
## Output -1

## Input How did this test come out for CCCCOc1ccc(S(=O)(=O)N/C(=N\O)Nc2ccc(Cl)cc2)cc1 ?
## Output -1

## Input How did this test come out for CNC(=O)OCC1=C(COC(=O)NC)CN(c2ccc(OC)cc2)C1 ?
## Output -1

## Input How did this test come out for N=C1C(=N)c2ccccc2-c2ccccc21 ?
## Output 1

## Input How did this test come out for Cc1ccc(NCc2nnc3c(-c4ccccc4)nc4ccccc4n23)cc1 ?
## Output -1

====

Give measured GI50 for each item. Keep answers brief.
Tested on: HCT-116
Experiment: NCI tumour cell line growth inhibition, 48 h
Activity calls are given as the source filed them. No stated cut-off is given here; in the data, active = GI50 up to about 1.1 µM and inactive = higher.

molecule	GI50
CO/N=[N+](\[O-])NC(C)C	> 100 µM (inactive)
Nc1ccn([C@@H]2C[C@H](CO)[C@@H](O)[C@H]2O)c(=O)n1	> 57.7 µM (inactive)
COC(=O)N/N=C(\C)C(CN1CCCCC1)C(C1=C(O)c2ccccc2OC1)c1ccccc1 (stereo not given)	> 100 µM (inactive)
CC1(C)N=C(c2ccccc2)SC12S[C@@H]1CCCC[C@H]1S2	> 100 µM (inactive)

Please turn your attention to the following entry.
## Input Which GI50 value is on record for O=C(O)CCC(NC(=O)c1ccc(Oc2nc3ccccc3nc2C(=O)O)cc1)C(=O)O (stereo not given) ?
## Output > 100 µM (inactive)

====

System: IGROV-1
Test: NCI tumour cell line growth inhibition, 48 h
Calls of active or inactive are those of the source. Cut-off read from the data, not from the text of the source: active = GI50 up to about 1.1 µM and inactive = higher.
Give measured GI50 for each item. Keep answers brief.

Known results for compounds:
compound	GI50
CN(C)CCCNc1ccnc2cc([N+](=O)[O-])ccc12	4.06 µM (inactive)
CCCCSC1=N/C(=C\c2ccco2)C(Cl)=N1	> 100 µM (inactive)
CCCCCCCCCCOCCOCCOCCOCCCCC(O)CCCCCCCC1=C[C@H](C)OC1=O (stereo partly specified)	14.4 µM (inactive)
COC(=O)CCc1ccc2c(c1)C(=O)CC2	> 100 µM (inactive)
O=C1c2cc3c(cc2CC1Cc1ccc2c(c1)CCC2)CCC3 (stereo unspecified)	31.6 µM (inactive)

List GI50 for every entry below, keeping the order given.
1. CC(C)OP(=S)(NC(=S)c1ccccc1)OC(C)C
2. CCOC(=O)c1nc(C)oc1C(F)(F)F
3. COc1ccc(/N=C2\C(=N/c3ccc(OC)cc3)N(c3ccc(N(C)C)cc3)C(=S)N2c2ccc(OC)cc2)cc1
4. COCOC1CCCC[C@@]1(OCCOCCO[C@@]1(c2ccccc2)CCCC[C@H]1OCOC)c1ccccc1 (stereo partly specified)
5. CO/N=[N+](\[O-])NC(C)C
6. Cc1c2ccncc2c(C)c2c1[nH]c1ccc(Cl)cc12

## Output
1: > 100 µM (inactive); 2: > 100 µM (inactive); 3: > 100 µM (inactive); 4: > 100 µM (inactive); 5: > 100 µM (inactive); 6: 2.86 µM (inactive)

====

System: MDA-MB-435
Test: NCI tumour cell line growth inhibition, 48 h
Calls of active or inactive are those of the source. Rule as the data show it: active = GI50 up to about 1.1 µM and inactive = higher. Where a SMILES comes first, the peptide text is derived from it. The star is where a group is joined. Boc = CC(C)(C)OC(=O)*; tBu = CC(C)(C)*
Give measured GI50 for each item. Keep answers brief.

Known results for compounds:
compound	system.name	GI50
O=C(NCCCN(CCCCN(CCCNC(=O)C(F)(F)F)Cc1ccc2ccccc2c1)Cc1ccc2ccccc2c1)C(F)(F)F	MDA-MB-435	1.9 µM (inactive)
c1ccc2c(c1)Nc1cccc3c1c-2nc1cc2ccccc2cc13	MDA-MB-435	2 µM (inactive)
CC(OC(C)(C)C)C(NC(=O)C(N)CCCCNC(=O)OC(C)(C)C)C(=O)NC(Cc1ccccc1)C(=O)O (stereo not given) (H-Lys(Boc)-Thr(tBu)-Phe-OH; configuration not given here)	MDA-MB-435	> 100 µM (inactive)
CSc1nc(C)c(CCCl)c(Cl)n1	MDA-MB-435	34.1 µM (inactive)

Please turn your attention to the following entry.
## Input # returns recorded GI50 (system: MDA-MB-435) for CC1(C)C[C@H]2[C@H](O)C(CO)=C3C(=O)[C@@H](O)[C@]3(C)[C@H]2C1
## Output 50.5 µM (inactive)

====

System: NCI-H522
Test: NCI tumour cell line growth inhibition, 48 h
Active and inactive are the calls of the source. No stated cut-off is given here; in the data, active = GI50 up to about 1.1 µM and inactive = higher.
measurement.kind: GI50

compound	system.name	GI50
OC(CCl)CN1CC[N+]2(CC1)CC[N+]1(CCN(CC(O)CCl)CC1)CC2 (stereo not given) [PROSPIDIUM CHLORIDE]	NCI-H522	> 50 µM (inactive)
C=C1CC[C@@H]2C13[C@@H]1[C@H](CC(=O)[C@@]23C)C1(C)C (stereo not given in full)	NCI-H522	> 100 µM (inactive)

List GI50 for every entry below, keeping the order given.
1. COC(=O)CCC(=O)NC1=C(NCc2ccccc2)C(=O)c2ccccc2C1=O
2. CC(O)C(N/C=C1/N=C(c2ccccc2)OC1=O)C(=O)O (stereo not given)

## Output
19.1 µM (inactive)
> 100 µM (inactive)

List GI50 for every entry below, keeping the order given.
1. Cc1ccc(-c2cc[n+]3c(n2)oc2ccccc23)cc1
2. CC12CCCC3(CC(=O)C(C)(C)C3C(=O)C1)C2 (stereo not given)

## Output
["5.98 µM (inactive)", "> 100 µM (inactive)"]

List GI50 for every entry below, keeping the order given.
1. O=[N+]([O-])c1ccc(Cl)cc1C1SCc2nc3ccccc3n21 (stereo not given)
2. CCOC(=O)C(O)(NC(=O)c1ccccc1F)C(F)(F)F (stereo not given)
3. C=C1CC2[C@H](C)C(=O)CCC2(C)C2=C1C1CCC(C(C)CCC(=C)C(C)C(=O)O)C1(C)CC2=O (stereo not given in full)
4. COc1ccc(NC2=NCCO2)c2c1CCCC2

## Output
24.4 µM (inactive)
> 100 µM (inactive)
47.1 µM (inactive)
31.8 µM (inactive)

====

System: SF-539
Experiment: NCI tumour cell line growth inhibition, 48 h
Activity calls are given as the source filed them. Rule as the data show it: active = GI50 up to about 1.1 µM and inactive = higher.
Give measured GI50 for each item. Keep answers brief.

Known results for compounds:
compound	GI50
COc1ccc(OC)c([N+](=O)[O-])c1-c1nc2sc(C)c(C)n2c1/C=N/N=C(N)N	> 100 µM (inactive)
Cc1c2ccncc2c(C)c2c1[nH]c1ccc(Cl)cc12	2.44 µM (inactive)
C[n+]1c2ccccc2cc2c(CNC(CCCNC(=N)N)C(=O)O)cccc21 (stereo unspecified)	1.23 µM (inactive)
Fc1cccc2cc3ccc4cccc5ccc(c12)c3c45	> 100 µM (inactive)
O=C(O)Cn1c(=O)[nH]c(=O)c2[nH]cnc21	> 100 µM (inactive)

Please turn your attention to the following entry.
## Input Which GI50 value is on record for COC(=O)N/N=C(\C)C(CN1CCCCC1)C(C1=C(O)c2ccccc2OC1)c1ccccc1 (stereo unspecified) ?
## Output > 100 µM (inactive)

====

Give measured GI50 for each item. Keep answers brief.
Test system: HT-29
Experiment: NCI tumour cell line growth inhibition, 48 h
Activity calls are given as the source filed them. Rule as the data show it: active = GI50 up to about 1.1 µM and inactive = higher.

Known results for compounds:
compound	GI50
COc1ccc(/C=c2/sc3n(c2=O)NC(c2ccc(Cl)cc2)NN=3)cc1 (centres undefined)	> 100 µM (inactive)
CCOC(=O)/C=C(/C(=O)OCC)n1cc(C)c(=O)n(/C(=C/C(=O)OCC)C(=O)OCC)c1=O	2.69 µM (inactive)
CC1=C(C(=O)Nc2cc(=O)n(C)c(=O)n2C)C(c2ccco2)C(C(=O)Nc2cc(=O)n(C)c(=O)n2C)=C(C)N1	> 100 µM (inactive)

Please turn your attention to the following entry.
## Input Which GI50 value is on record for CC(=O)O[C@H]1[C@H](OC(C)=O)[C@@H](CN=[N+]=[N-])OCO[C@@H]1CN=[N+]=[N-] ?
## Output > 100 µM (inactive)

====

Test system: SF-539
Test: NCI tumour cell line growth inhibition, 48 h
Activity calls are given as the source filed them. Cut-off read from the data, not from the text of the source: active = GI50 up to about 1.1 µM and inactive = higher.
// one of active, inactive, no free text

molecule	category
N=C(N)c1ccc(OCCCCCOc2ccc(C(=N)N)cc2)cc1	inactive
O=C(O)CCC(=O)c1ccc2ccc3cccc4ccc1c2c34	inactive

## Input How did this test come out for CCOC(=O)c1nc(C)oc1C(F)(F)F ?
## Output inactive

## Input How did this test come out for CN(C)CCNC(=O)c1cccc2nc3c(C(=O)NCCN(C)C)cccc3nc12 ?
## Output inactive

## Input How did this test come out for Cc1nc(-c2nc(C)c(C(=O)NNC(=O)C[n+]3ccccc3)s2)sc1C(=O)NNC(=O)C[n+]1ccccc1 ?
## Output inactive

## Input How did this test come out for C[C@]12CC[C@H]3[C@@H](CC=C4C[C@@H](O)CC[C@@]43C)[C@@H]1C[C@H](N1CCOCC1)[C@@H]2O ?
## Output inactive

## Input How did this test come out for S=C(N/N=C(/c1ccccc1)c1ccccn1)N(Cc1ccccn1)Cc1ccccn1 ?
## Output active

## Input How did this test come out for O=C(c1ccccc1)C1OC12C(=O)Nc1ccccc12 (centres undefined) ?
## Output inactive

## Input How did this test come out for CC[C@@]1(O)C(=O)OCc2c1cc1n(c2=O)Cc2c-1nc1ccccc1c2/C=N/NC(=O)C[N+](C)(C)C ?
## Output active
